binders and their reported TOP MFI
- assayedTarget: T1, full length human SIRPα v1 stably expressed on CHOK1 or 293F cells (human, UniProt P78324 31-504)
- T1 construct: whole, on cells; also called CHOK1-human SIRPα v1; CHOK1-hSIRPα v1
- T1 sequence (P78324 31-504): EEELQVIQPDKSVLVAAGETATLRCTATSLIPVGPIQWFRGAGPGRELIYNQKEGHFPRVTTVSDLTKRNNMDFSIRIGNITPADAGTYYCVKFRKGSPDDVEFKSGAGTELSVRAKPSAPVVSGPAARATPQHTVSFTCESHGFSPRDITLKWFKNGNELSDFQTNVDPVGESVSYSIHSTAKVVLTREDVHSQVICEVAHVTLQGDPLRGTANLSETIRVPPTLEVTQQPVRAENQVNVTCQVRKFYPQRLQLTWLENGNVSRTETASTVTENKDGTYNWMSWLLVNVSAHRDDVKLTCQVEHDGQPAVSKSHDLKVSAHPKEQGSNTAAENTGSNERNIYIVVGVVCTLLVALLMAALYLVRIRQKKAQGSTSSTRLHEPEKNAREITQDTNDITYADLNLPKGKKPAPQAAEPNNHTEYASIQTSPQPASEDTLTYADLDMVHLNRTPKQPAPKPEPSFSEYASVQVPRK
- testDescription: FACS, CHOK1-hSIRPα v1 cells

| binder | TOP MFI |
| --- | --- |
| hu025.021 (antibody, V domains shown, Humanized 025; also called hu025.21) VH: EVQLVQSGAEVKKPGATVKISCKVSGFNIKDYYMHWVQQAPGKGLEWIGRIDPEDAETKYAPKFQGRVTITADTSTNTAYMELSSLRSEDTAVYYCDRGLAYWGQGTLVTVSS VL: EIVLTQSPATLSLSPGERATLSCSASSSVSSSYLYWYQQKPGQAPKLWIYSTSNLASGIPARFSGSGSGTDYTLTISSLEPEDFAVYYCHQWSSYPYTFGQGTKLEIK | 56400 MFI |

// below: TOP MFI requested for another binder
Measured TOP MFI of 025c (antibody, V domains shown, also called chimeric antibody 025c; parental antibody of 025c) VH: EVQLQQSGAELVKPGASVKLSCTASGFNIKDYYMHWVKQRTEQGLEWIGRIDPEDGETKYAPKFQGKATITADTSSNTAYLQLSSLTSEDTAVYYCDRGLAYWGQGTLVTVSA VL: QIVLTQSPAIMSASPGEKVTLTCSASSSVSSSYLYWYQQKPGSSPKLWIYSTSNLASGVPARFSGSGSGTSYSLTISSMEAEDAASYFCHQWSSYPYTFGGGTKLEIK : 64700 MFI

Origin of values: patent US20250270315A1
